Test system: K4 kissing-loop RNA reporter;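 also: bound reporter read as fluorescence of individual clusters on recovered sequencing chips by microscopy, with normalized cluster intensities fitted with a binding model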
Assay: apparent KD of K4 kissing-loop reporter; higher = weaker reporter binding
Conditions: Eterna round: R107; input ligand: arginine 13.2 mM
Okay, here is how we bin by apparent KD of K4 kissing-loop reporter: lower band (below 200 nM), central band (200 nM to below 400 nM), upper band (400 nM or more)

Consider the following illustrative entries.
Residue String	Category
AAUAAAAGAUGUUUAGGAAAGAAAAUGGAAGGAGCGUGCGAAAGCACAGGUAGGUCGCCAGUGAUGUUGGAACCUGAGCAUCAAA [#SwitchBubble 15 #K4Late]	upper band
GGUUUAUAGGAGGAUACCAGUACGGAUAAAGUACGUUAAUAGUAGAGUGAUGUUCUAAAGUACCCUUGGCAGCUUAGAGUGAGUG [ExTheophylB.M]	lower band
UGAUACCAGACUGAUACCAGCCAGUGAUGUUGGCUAAGCCAAAUAGGUGUCAAAGACACCGGCCCUUGGCAGCAGUCUGGUAUCU [TheoBX 2 #SwitchBubble #StaticStem]	lower band
UGACAUUGCUCAGAUACCAGACAUGAGCAUCAGCCAUGUACCAAGAAAGUACAAUAAAAUGUCCCUUGGCAGCUGAGCAAUGUCU [TheoBX 8]	lower band
AGUAAUAUCACGGCCGCCACUGAUUAUUGUUUUUAUAGUUAUAAAUCUUGCCAGUGAUGUUGGUUCAGGACCGGGUGAGUUAAUA [JR_SSTryptoB_Sub001]	upper band
GCGGACAUUCGCAGUGAUGUUGCGACGGAAGGAGCGGAUGAAAAUCCAGGUAGGUCGCCGACAAAAUUAAUUUUAAUGUGUUCGC [#03 K4 Arginine A Same State]	central band

Lab note: sort UAUUAAUUGUCAGGAUAUCGAAAUCGAGUGAUGUUCGUAAAUUAAUUAUUAUUAAUAAUAUUUAAACGAGAAGGGACAUUAUUUA [JR_SSFMNB_Sub001] into the matching apparent KD of K4 kissing-loop reporter band.
upper band

Lab note: sort CCGGCCCAGCCGGAUACCAGUGCGCCGCAGGGAACGGCGGGCCCAGAGUGAUGUUCGGGACACCCUUGGCAGCCGCCUGGGUCCC [#2 Same State - Theophylline B Attempt #30 (HarryS)] into the matching apparent KD of K4 kissing-loop reporter band.
central band

Lab note: sort CAUACGCAUGGAGGAUAUGAGAUUUCUCAUGUCAUUUAAUAUUCUCAGUGAUGUUGAGAUUUUGGCUCAGAAGGCCAUGUGUAUG [Ex FMN B 19] into the matching apparent KD of K4 kissing-loop reporter band.
central band

Lab note: sort UGUCAUUGGUCGGCCGCCACUAGGACCGGGUAUAACCUAGUGAUGUUAGUAAGUACGGCCGCCACUAGGACCGGGACCGAUGACU [KL-SSTryp-B19 #DoubleAptamer] into the matching apparent KD of K4 kissing-loop reporter band.
central band

Lab note: sort AAAAGCAGAAAGACGCAUUAAAGAACCGAAGGAGCGCGGAAUUACGCAGGUAGGUCGCGGGAUAAGCGAGUGAUGUUCGCGAAAG [Arginine A Same State; Euphoria Solution] into the matching apparent KD of K4 kissing-loop reporter band.
lower band

From: the supplement of paper PMC9170038
